Ref: the OPERA property sets (Mansouri et al. 2018)

Recorded measurements of logP, one per entry
measurement.name: logP

>>> print(df.to_string())
                                   compound  number
0                      COc1ccc(CN(C)N=O)cc1    1.62
1                             CCCCCc1ccncc1    3.75
2                     N#Cc1cccc(OCC(=O)O)c1    0.95
3                  c1ccc2c(N3CCCCC3)ncnc2c1    2.92
4  C[C@]12CC[C@H]3[C@@H](CCC4=CC(=O)CC[C@@H]43)[C@@H]1CC[C@@H]2O    2.62
5                      CCN(CC)C(=O)c1ccccc1    1.25
6                       c1ccc(NC2=NCCN2)cc1    1.01
7                   COc1cc(C(=O)O)cc(OC)c1O    1.04
